- Test system: benzodiazepine receptors
- assayRemarks: In vivo displacement of 3H-flunitrazepam binding to benzodiazepine receptors in living brain
- conditionParameters: mice, usually subcutaneously, 3H-flunitrazepam i.v. 15 minutes later
parameterMeasured: 3H-flunitrazepam binding in vivo ED50 (mg/kg)
Give your result in mg/kg as a bare value.

Worked examples follow.
{"columns": ["compound", "measurementTarget", "unitOfMeasure", "3H-flunitrazepam binding in vivo ED50"],
 "data": [
  ["O=C1Nc2ccc(Cl)cc2C(c2ccccc2Cl)=NC1O (centres unmarked) [Lorazepam, reference compound]", "benzodiazepine receptors", "mg/kg", 0.2],
  ["CCOC(=O)c1cc2c(cn1)[nH]c1cccc(OC(C)C)c12 [(CH3)2 CH, H]", "benzodiazepine receptors", "mg/kg", 6.4],
  ["CCOC(=O)c1ncc2[nH]c3cccc(OC)c3c2c1CC [CH3, CH3 CH2]", "benzodiazepine receptors", "mg/kg", 3.0],
  ["CN1C(=O)CN=C(c2ccccc2)c2cc(Cl)ccc21 [Diazepam, reference compound]", "benzodiazepine receptors", "mg/kg", 1.5]
]}

**Query** So what does the record say about 3H-flunitrazepam binding in vivo ED50 for CCOC(=O)c1ncc2[nH]c3cccc(OC(C)C)c3c2c1C [(CH3)2 CH, CH3] ?
**Result** 0.3

###

- measurementTarget: benzodiazepine receptors
- assayRemarks: Displacement of 3H-flunitrazepam specific binding in vitro, rat forebrain membrane suspension
- conditionParameters: 3H-flunitrazepam 1.0 nM, 0° C., pH 7.1
Examples of compounds with documented 3H-flunitrazepam binding in vitro IC50 follow.
Give your result in ng/mL as a bare value.

{"columns": ["compound", "unitOfMeasure", "3H-flunitrazepam binding in vitro IC50"],
 "data": [
  ["CCOC(=O)c1cc2c(cn1)[nH]c1cccc(OC(C)C)c12 [(CH3)2 CH, H]", "ng/mL", 0.4],
  ["CCOC(=O)c1ncc2[nH]c3cccc(OC)c3c2c1CC [CH3, CH3 CH2]", "ng/mL", 1.4],
  ["CCOC(=O)c1ncc2[nH]c3cccc(OC(C)C)c3c2c1C [(CH3)2 CH, CH3]", "ng/mL", 0.6],
  ["CN1C(=O)CN=C(c2ccccc2)c2cc(Cl)ccc21 [Diazepam, reference compound]", "ng/mL", 3]
]}

Shifting focus to the compound that follows.
**Query** So what does the record say about 3H-flunitrazepam binding in vitro IC50 for O=C1Nc2ccc(Cl)cc2C(c2ccccc2Cl)=NC1O (centres unmarked) [Lorazepam, reference compound] ?
**Result** 1

###

- assayRemarks: Inhibition of motor coordination (ataxia)
- Assay type: in vivo
- conditionParameters: mouse, sc, mice, 30 minutes after subcutaneous administration, read-out: Inhibition of/Ataxia (motor-incoordination)
parameterMeasured: ED50 at 0.5 h (mg/kg)
Give your result in mg/kg as a bare value.

{"columns": ["compound", "unitOfMeasure", "ED50 at 0.5 h"],
 "data": [
  ["O=C1Nc2ccc(Cl)cc2C(c2ccccc2Cl)=NC1O (centres unmarked) [Lorazepam, reference compound]", "mg/kg", 0.3]
]}

Shifting focus to the compound that follows.
**Query** So what does the record say about ED50 at 0.5 h for CN1C(=O)CN=C(c2ccccc2)c2cc(Cl)ccc21 [Diazepam, reference compound] ?
**Result** 3

###

- assayRemarks: Inhibition of motor coordination (ataxia)
- Type: in vivo
- conditionParameters: mouse, sc, mice, 30 minutes after subcutaneous administration, read-out: Inhibition of/Ataxia (motor-incoordination)
parameterMeasured: ED50 at 0.5 h

{"columns": ["querySmiles", "ED50 at 0.5 h"],
 "data": [
  ["CCOC(=O)c1ncc2[nH]c3cccc(OC(C)C)c3c2c1C", "> 100 mg/kg"],
  ["CCOC(=O)c1ncc2[nH]c3cccc(OC)c3c2c1CC", "> 100 mg/kg"]
]}

Shifting focus to the compound that follows.
**Query** So what does the record say about ED50 at 0.5 h for CCOC(=O)c1cc2c(cn1)[nH]c1cccc(OC(C)C)c12 ?
**Result** > 100 mg/kg
